This collection of values is drawn from patent US10369134B2.

- measurement protocol: Solubility of crystal forms
- Format: physicochemical
- recorded conditions: water, pH 10.2, water, thermodynamic from solid; read-out: Solubility, Water
measured endpoint: solubility (µg/mL)

> print(dat)
                                   compound  measured.endpoint  readout.number
1  CCN1CCC[C@@H]1CNC(=O)c1cc(S(=O)(=O)CC)c(N)cc1OC [(R)-amisulpride Form A]         solubility            2000
2  CCN1CCC[C@H]1CNC(=O)c1cc(S(=O)(=O)CC)c(N)cc1OC [(S)-amisulpride Form A′]         solubility            2000

----------
- measurement protocol: Solubility of crystal forms
- Type: physicochemical
- recorded conditions: acetone/MtBE 1:4, organic solvent or mixture, thermodynamic from solid; read-out: Solubility, Acetone/MtBE 1:4
measured endpoint: solubility (µg/mL)

> print(dat)
                                   molecule  measured.endpoint  readout.number
1  CCN1CCC[C@@H]1CNC(=O)c1cc(S(=O)(=O)CC)c(N)cc1OC [(R)-amisulpride Form A]         solubility            8000
2  CCN1CCC[C@H]1CNC(=O)c1cc(S(=O)(=O)CC)c(N)cc1OC [(S)-amisulpride Form A′]         solubility            8000

----------
Listing of entries alongside the reported solubility.
- measurement protocol: Solubility of crystal forms
- Type: physicochemical
- recorded conditions: simulated intestinal fluid (no enzyme), pH 6.7, fassgf or other biorelevant, thermodynamic from solid; pH adjusted to 6.7 (Form A), 6.9 (Form A′); read-out: Solubility, Simulated Intestinal Fluid (no enzyme)

> print(dat)
                                   compound       result
1  CCN1CCC[C@H]1CNC(=O)c1cc(S(=O)(=O)CC)c(N)cc1OC [(S)-amisulpride Form A′]  > 100 mg/mL

response.value for CCN1CCC[C@@H]1CNC(=O)c1cc(S(=O)(=O)CC)c(N)cc1OC [(R)-amisulpride Form A] (field: solubility) = > 100 mg/mL

----------
- measurement protocol: Solubility of crystal forms
- Type: physicochemical
- recorded conditions: 0.05 M acetate buffer, aqueous buffer, thermodynamic from solid; solution pH 4.5; read-out: Solubility, 0.05 M Acetate Buffer
Listing of entries alongside the reported solubility.

> print(dat)
                                   compound  measured.endpoint       result
1  CCN1CCC[C@H]1CNC(=O)c1cc(S(=O)(=O)CC)c(N)cc1OC [(S)-amisulpride Form A′]         solubility  > 100 mg/mL

In the following, a different compound is considered.
response.value for CCN1CCC[C@@H]1CNC(=O)c1cc(S(=O)(=O)CC)c(N)cc1OC [(R)-amisulpride Form A] (field: solubility) = > 100 mg/mL

----------
- measurement protocol: Solubility of crystal forms
- Format: physicochemical
- recorded conditions: simulated gastric fluid (no enzyme), pH 1.1, simulated gastric fluid, thermodynamic from solid; pH adjusted to 1.1 (Form A), 1.2 (Form A′); read-out: Solubility, Simulated Gastric Fluid (no enzyme)
measured endpoint: solubility

> print(dat)
                                   molecule  measured.endpoint       result
1  CCN1CCC[C@@H]1CNC(=O)c1cc(S(=O)(=O)CC)c(N)cc1OC [(R)-amisulpride Form A]         solubility  > 100 mg/mL

In the following, a different molecule is considered.
response.value for CCN1CCC[C@H]1CNC(=O)c1cc(S(=O)(=O)CC)c(N)cc1OC [(S)-amisulpride Form A′] (field: solubility) = > 100 mg/mL

----------
- measurement protocol: Solubility of crystal forms
- Format: physicochemical
- recorded conditions: acetone/MtBE 1:9, organic solvent or mixture, thermodynamic from solid; read-out: Solubility, Acetone/MtBE 1:9
measured endpoint: solubility (µg/mL)

> print(dat)
                                   compound  readout.number
1  CCN1CCC[C@H]1CNC(=O)c1cc(S(=O)(=O)CC)c(N)cc1OC [(S)-amisulpride Form A′]            2000
2  CCN1CCC[C@@H]1CNC(=O)c1cc(S(=O)(=O)CC)c(N)cc1OC [(R)-amisulpride Form A]            2000
